Target: HLA-DR DRB1*0701 (DR7) (Homo sapiens, UniProt P01903+P01911, A100R/A102G/A103Q/D57E/D86V/E43K/F76Y/K127E/L162R/M171V/P40G/Q125H/Q99D/R33Q/R42Y/R54Q/S133A/S66F/T210M/V115G/Y107V/Y59L/Y89S)
Assay: biochemical
Assay type: binding
pIC50: −log10 of the molar value. No end group written: not given here.
Short version: pIC50 at least 6 is T, less is F.

# check: pIC50 of GAALGGAARALAHGV is greater than or equal to 6
F

Assess whether reported pIC50 for VGGVYLLARRGPRLGV sits at 6 or higher.
T

Given the entry VGGVYLLRRAGPRLGV , answer whether its pIC50 meets or surpasses 6.
T

Can QLCFLKKGLGISYGR be said to have pIC50 at or above 6?
F

Could you please find out whether GAPLGGAARAAAHGV has pIC50 that meets 6 or exceeds it?
F

Item VGGVYLLPARGPRLGV with pIC50 of 6 or above?
T

Decide: pIC50 of GAPLGGAARLLAHGV >= 6?
F

Please indicate if the recorded pIC50 for GAPLGGAAAALAHGV meets or exceeds 6.
F

* * *

Target: HLA-DR DRB5*0101 (DR51) (Homo sapiens, UniProt P01903+Q30154)
Assay: biochemical
Type: binding
Settings: DRB5 *0101
Please provide measured IC50 for the entries that follow.
Field: numeric (nM). Do not append units.

IC50 reported for this compound CC[C@H](C)[C@H](NC(=O)[C@H](CCCCN)NC(=O)[C@H](CC(N)=O)NC(=O)[C@@H](NC(=O)[C@@H](NC(=O)[C@H](CC(C)C)NC(=O)[C@@H](NC(=O)[C@H](CO)NC(=O)[C@H](CC(C)C)NC(=O)[C@H](C)NC(=O)[C@H](CCC(=O)O)NC(=O)CN)[C@@H](C)O)C(C)C)C(C)C)C(=O)N[C@@H](CCCNC(=N)N)C(=O)NCC(=O)N[C@H](C(=O)O)[C@@H](C)O : 108

Reported IC50 ( CSCC[C@H](NC(=O)[C@@H]1CCCN1C(=O)[C@H](CC(=O)O)NC(=O)[C@@H](N)Cc1ccc(O)cc1)C(=O)N[C@@H](Cc1ccccc1)C(=O)N[C@@H](CCCCN)C(=O)N[C@@H](Cc1ccc(O)cc1)C(=O)N[C@@H](Cc1c[nH]cn1)C(=O)N[C@@H](CC(C)C)C(=O)N[C@H](C(=O)N[C@H](C(=O)N[C@@H](C)C(=O)N[C@@H](CCC(N)=O)C(=O)N[C@H](C(=O)N[C@@H](CCCNC(=N)N)C(=O)O)C(C)C)C(C)C)[C@@H](C)O ) = 62

Note to self: IC50 recorded for CC[C@H](C)[C@H](N)C(=O)N[C@@H](Cc1ccc(O)cc1)C(=O)N[C@@H](CO)C(=O)N[C@H](C(=O)N[C@@H](CO)C(=O)N[C@@H](CCSC)C(=O)N[C@@H](CCCCN)C(=O)N[C@@H](Cc1c[nH]cn1)C(=O)N1CCC[C@H]1C(=O)N[C@@H](CCC(N)=O)C(=O)N[C@@H](CCC(=O)O)C(=O)N[C@@H](CCSC)C(=O)N[C@@H](CCCCN)C(=O)N[C@H](C(=O)N[C@@H](Cc1ccc(O)cc1)C(=O)O)[C@@H](C)O)[C@@H](C)CC was 2590

Sure, the documented IC50 for CSCC[C@H](NC(=O)CNC(=O)CNC(=O)[C@H](CCCNC(=N)N)NC(=O)[C@@H](NC(=O)[C@H](CCC(N)=O)NC(=O)[C@H](C)NC(=O)[C@@H](NC(=O)[C@@H](NC(=O)[C@H](CC(C)C)NC(=O)[C@H](Cc1c[nH]cn1)NC(=O)[C@H](Cc1ccc(O)cc1)NC(=O)[C@@H](N)CCCCN)[C@@H](C)O)C(C)C)C(C)C)C(=O)N[C@H](C(=O)N[C@@H](Cc1ccccc1)C(=O)O)C(C)C is 86

// IC50 value for CC[C@H](C)[C@H](NC(=O)CNC(=O)[C@H](CCCNC(=N)N)NC(=O)[C@H](CCCNC(=N)N)NC(=O)[C@H](Cc1ccc(O)cc1)NC(=O)[C@H](C)NC(=O)[C@H](Cc1ccc(O)cc1)NC(=O)[C@@H](N)CCC(=O)O)C(=O)N[C@@H](C)C(=O)N[C@@H](CCC(=O)O)C(=O)N[C@@H](C)C(=O)N[C@H](C(=O)NCC(=O)N[C@@H](CC(C)C)C(=O)N1CCC[C@H]1C(=O)O)C(C)C : 1200

// IC50 value for CSCC[C@H](NC(=O)[C@H](CC(C)C)NC(=O)[C@@H]1CCCN1C(=O)[C@@H](NC(=O)[C@@H](N)CS)[C@@H](C)O)C(=O)N[C@@H](Cc1ccc(O)cc1)C(=O)N[C@@H](CO)C(=O)N[C@@H](CC(C)C)C(=O)N[C@H](C(=O)N[C@@H](Cc1c[nH]cn1)C(=O)N[C@@H](CC(N)=O)C(=O)N[C@@H](CC(C)C)C(=O)N[C@H](C(=O)N[C@@H](CCCCN)C(=O)N[C@@H](CCC(=O)O)C(=O)O)[C@@H](C)O)C(C)C : 36

Per the record, CC[C@H](C)[C@H](NC(=O)[C@@H](NC(=O)[C@@H](N)CO)C(C)C)C(=O)N[C@@H](CC(C)C)C(=O)N[C@@H](CC(C)C)C(=O)NCC(=O)N[C@@H](CCCNC(=N)N)C(=O)N[C@@H](Cc1c[nH]cn1)C(=O)N[C@@H](CO)C(=O)N[C@@H](CC(C)C)C(=O)N[C@@H](Cc1ccccc1)C(=O)N[C@@H](Cc1c[nH]cn1)C(=O)N1CCC[C@H]1C(=O)N[C@@H](CCC(=O)O)C(=O)N[C@@H](CC(=O)O)C(=O)O has IC50 of 16100

Recorded IC50 (compound CC[C@H](C)[C@H](NC(=O)[C@H](CS)NC(=O)[C@H](Cc1c[nH]cn1)NC(=O)[C@H](C)NC(=O)[C@H](C)NC(=O)[C@@H](NC(=O)[C@H](CC(C)C)NC(=O)[C@@H](NC(=O)[C@H](Cc1c[nH]c2ccccc12)NC(=O)[C@@H](N)CCC(N)=O)C(C)C)[C@@H](C)O)C(=O)N[C@@H](CCCNC(=N)N)C(=O)N[C@@H](CC(N)=O)C(=O)N[C@@H](CCCCN)C(=O)N[C@@H](CO)C(=O)N[C@H](C(=O)O)C(C)C ): 35

* * *

Assignment: determine reported pIC50 for the given compounds.
Target: HLA-DR DRB5*0101 (DR51) (Homo sapiens, UniProt P01903+Q30154)
Assay: biochemical
Format: binding
Conditions: DRB5 *0101
// pIC50 is dimensionless: -log10 of concentration (M)

Record for CC[C@H](C)[C@H](NC(=O)[C@@H]1CCCN1C(=O)[C@H](CC(=O)O)NC(=O)[C@@H](NC(=O)[C@@H]1CCCN1C(=O)[C@H](Cc1ccccc1)NC(=O)[C@@H](NC(=O)[C@H](CC(=O)O)NC(=O)[C@@H](NC(=O)[C@@H]1CCCN1C(=O)[C@H](CO)NC(=O)[C@@H](N)CCCNC(=N)N)[C@@H](C)CC)[C@@H](C)O)[C@@H](C)O)C(=O)N[C@@H](CCCCN)C(=O)N[C@@H](CCC(=O)O)C(=O)N[C@@H](CO)C(=O)O under target or system HLA-DR DRB5*0101 (DR51) (Homo sapiens, UniProt P01903+Q30154): pIC50 reported as 4.54

Lab entry: HLA-DR DRB5*0101 (DR51) (Homo sapiens, UniProt P01903+Q30154) assay, compound CC[C@H](C)[C@H](NC(=O)[C@H](CO)NC(=O)[C@@H](NC(=O)CN)C(C)C)C(=O)N[C@@H](Cc1c[nH]c2ccccc12)C(=O)N[C@@H](CC(N)=O)C(=O)N1CCC[C@H]1C(=O)N[C@H](C(=O)N[C@@H](CC(C)C)C(=O)N[C@@H](CC(C)C)C(=O)N[C@@H](Cc1c[nH]c2ccccc12)C(=O)N[C@@H](CCC(N)=O)C(=O)N1CCC[C@H]1C(=O)N[C@H](C(=O)N1CCC[C@H]1C(=O)O)[C@@H](C)CC)[C@@H](C)CC , pIC50 = 6.28

The reported HLA-DR DRB5*0101 (DR51) (Homo sapiens, UniProt P01903+Q30154) pIC50 of CC[C@H](C)[C@H](NC(=O)[C@H](CC(N)=O)NC(=O)[C@H](CCC(=O)O)NC(=O)[C@H](C)NC(=O)[C@H](CCCCN)NC(=O)[C@H](CC(C)C)NC(=O)[C@H](CCC(=O)O)NC(=O)[C@H](CC(=O)O)NC(=O)[C@@H](N)CC(C)C)C(=O)N[C@@H](CCCCN)C(=O)N[C@@H](CCCCN)C(=O)N[C@@H](Cc1ccccc1)C(=O)N[C@@H](CC(C)C)C(=O)N[C@@H](Cc1ccc(O)cc1)C(=O)N[C@@H](CC(N)=O)C(=O)O is 6.82
